property_measured: IC50

Req: Retrieve IC50 on Cholinesterase (Homo sapiens); query `CN(CCCNc1c2c(nc3ccccc13)CCCC2)CCCNc1c2c(nc3ccccc13)CCCC2`
Sequence (P06276 whole entry): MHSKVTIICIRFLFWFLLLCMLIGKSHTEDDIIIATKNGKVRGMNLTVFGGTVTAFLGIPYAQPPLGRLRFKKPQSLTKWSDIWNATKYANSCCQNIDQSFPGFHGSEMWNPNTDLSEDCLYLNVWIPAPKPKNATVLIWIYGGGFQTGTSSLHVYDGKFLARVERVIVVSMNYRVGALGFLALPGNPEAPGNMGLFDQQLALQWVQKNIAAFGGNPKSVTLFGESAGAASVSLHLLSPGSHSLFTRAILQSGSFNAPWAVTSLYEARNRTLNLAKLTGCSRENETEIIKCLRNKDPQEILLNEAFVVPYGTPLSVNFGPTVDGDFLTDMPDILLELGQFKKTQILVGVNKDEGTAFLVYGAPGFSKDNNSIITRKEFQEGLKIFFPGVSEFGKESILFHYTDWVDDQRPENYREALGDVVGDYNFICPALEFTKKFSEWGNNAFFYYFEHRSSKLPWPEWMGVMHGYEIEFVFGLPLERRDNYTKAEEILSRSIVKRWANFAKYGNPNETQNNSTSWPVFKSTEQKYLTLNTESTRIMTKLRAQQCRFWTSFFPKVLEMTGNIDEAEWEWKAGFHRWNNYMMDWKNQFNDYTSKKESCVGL
Resp: 10.4 nM

Req: Fill in: IC50 on Cholinesterase (Homo sapiens), entry `CC(=O)N(CCCNc1c2c(nc3ccccc13)CCCC2)CCCNc1c2ccccc2nc2ccccc12`
Resp: 3.9 nM

Req: Quote Cholinesterase (Homo sapiens) IC50 for entry `c1ccc2c(NCCCCCCCCSc3c4c(nc5ccccc35)CCCC4)c3c(nc2c1)CCCC3` .
Resp: 0.77 nM

---

# target_desc: Acetylcholinesterase (Homo sapiens, UniProt P22303)
# Sequence (P22303 whole entry): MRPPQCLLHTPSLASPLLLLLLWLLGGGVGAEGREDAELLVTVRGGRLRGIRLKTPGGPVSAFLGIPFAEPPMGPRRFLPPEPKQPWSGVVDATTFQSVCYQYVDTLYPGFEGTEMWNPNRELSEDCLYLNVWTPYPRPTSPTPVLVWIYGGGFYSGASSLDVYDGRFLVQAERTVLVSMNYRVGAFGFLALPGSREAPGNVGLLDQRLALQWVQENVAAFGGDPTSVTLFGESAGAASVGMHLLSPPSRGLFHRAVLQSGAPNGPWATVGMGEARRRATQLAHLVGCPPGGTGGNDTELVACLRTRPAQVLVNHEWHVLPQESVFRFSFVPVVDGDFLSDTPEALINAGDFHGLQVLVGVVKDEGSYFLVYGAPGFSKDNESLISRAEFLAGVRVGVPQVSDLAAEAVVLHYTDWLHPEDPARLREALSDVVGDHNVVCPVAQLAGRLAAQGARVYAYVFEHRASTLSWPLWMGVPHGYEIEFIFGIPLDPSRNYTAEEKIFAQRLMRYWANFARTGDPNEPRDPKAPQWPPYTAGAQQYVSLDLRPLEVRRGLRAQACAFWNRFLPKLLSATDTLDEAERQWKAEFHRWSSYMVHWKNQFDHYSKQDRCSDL
property_measured: IC50 (pM)
Just the number in pM, nothing appended.

Req: Find the measured IC50 of `CN(CCCNc1c2c(nc3ccccc13)CCCC2)CCCNc1c2c(nc3ccccc13)CCCC2` with Acetylcholinesterase (Homo sapiens, UniProt P22303) as test system.
Resp: 300

---

property_measured: pKi
Please keep in mind that pKi is minus log10 of the molar concentration; only the number is needed.

Req: Quote pKi with test system UniProt:Q9N1N9 for `c1ccc2c(NCCCCCCCCCSc3c4c(nc5ccccc35)CCCC4)c3c(nc2c1)CCCC3`
Sequence (Q9N1N9 whole entry): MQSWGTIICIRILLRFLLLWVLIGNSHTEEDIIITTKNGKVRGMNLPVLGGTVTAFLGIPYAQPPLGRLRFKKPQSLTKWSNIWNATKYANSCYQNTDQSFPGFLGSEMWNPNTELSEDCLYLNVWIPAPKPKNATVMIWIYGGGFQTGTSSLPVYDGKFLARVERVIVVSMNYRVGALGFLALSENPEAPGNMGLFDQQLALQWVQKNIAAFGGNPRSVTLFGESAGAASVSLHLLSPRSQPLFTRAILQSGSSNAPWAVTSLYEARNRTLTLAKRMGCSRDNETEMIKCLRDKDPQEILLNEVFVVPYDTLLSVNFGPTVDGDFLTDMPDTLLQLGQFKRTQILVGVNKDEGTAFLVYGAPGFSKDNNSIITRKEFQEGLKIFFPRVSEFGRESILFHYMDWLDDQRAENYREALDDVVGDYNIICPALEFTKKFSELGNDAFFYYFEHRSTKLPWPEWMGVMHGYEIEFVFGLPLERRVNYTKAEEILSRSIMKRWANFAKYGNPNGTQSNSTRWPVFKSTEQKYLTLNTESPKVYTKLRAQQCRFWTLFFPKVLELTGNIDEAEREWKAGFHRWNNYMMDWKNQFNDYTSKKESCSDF
Resp: 8.64

Req: For UniProt:Q9N1N9, give pKi of the listed molecule: `CN(CCCCSc1c2c(nc3ccccc13)CCCC2)CCCNc1c2c(nc3ccccc13)CCCC2`
Resp: 9.17

Req: Name the value of pKi reported for `C=CCN(CCCNc1c2c(nc3ccccc13)CCCC2)CCCNc1c2ccccc2nc2ccccc12` when tested on UniProt:Q9N1N9.
Resp: 9.12

Req: Fetch value of pKi on UniProt:Q9N1N9 for `OCCN(CCCNc1c2c(nc3ccccc13)CCCC2)CCCNc1c2ccccc2nc2ccccc12` .
Resp: 8.48

Req: Given `CC(=O)N(CCCNc1c2c(nc3ccccc13)CCCC2)CCCNc1c2ccccc2nc2ccccc12` , report its pKi on UniProt:Q9N1N9.
Resp: 8.70

---

# target_desc: Acetylcholinesterase (Bos taurus, UniProt P23795)
# Sequence (P23795 whole entry): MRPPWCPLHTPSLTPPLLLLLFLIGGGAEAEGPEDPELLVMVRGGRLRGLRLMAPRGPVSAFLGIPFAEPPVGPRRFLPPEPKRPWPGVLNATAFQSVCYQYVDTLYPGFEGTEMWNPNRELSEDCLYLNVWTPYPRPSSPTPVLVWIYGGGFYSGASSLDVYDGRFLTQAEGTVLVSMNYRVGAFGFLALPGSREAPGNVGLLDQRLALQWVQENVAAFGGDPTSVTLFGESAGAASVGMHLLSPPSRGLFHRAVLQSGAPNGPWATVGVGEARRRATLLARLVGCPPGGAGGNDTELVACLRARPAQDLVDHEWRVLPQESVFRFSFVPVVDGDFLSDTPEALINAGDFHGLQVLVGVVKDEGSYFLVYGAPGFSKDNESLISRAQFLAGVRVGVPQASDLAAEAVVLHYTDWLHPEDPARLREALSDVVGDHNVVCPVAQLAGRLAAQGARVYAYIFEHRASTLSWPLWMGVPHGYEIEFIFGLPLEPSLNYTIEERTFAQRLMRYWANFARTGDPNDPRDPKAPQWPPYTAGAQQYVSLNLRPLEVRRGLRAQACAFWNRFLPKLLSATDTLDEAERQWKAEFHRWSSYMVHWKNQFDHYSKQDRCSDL
Labelling: Ki reported below 0.05 µM becomes True; at or above becomes False.

Req: Does the reported Ki of the following molecule sit strictly below 0.05 µM? `OCCN(CCCNc1c2c(nc3ccccc13)CCCC2)CCCNc1c2ccccc2nc2ccccc12`
Resp: True

Req: Confirm or reject: Ki of `CC(=O)N(CCCNc1c2c(nc3ccccc13)CCCC2)CCCNc1c2ccccc2nc2ccccc12` lies strictly below 0.05 µM
Resp: False

Req: Determine whether this molecule shows Ki lower than 0.05 µM (ties excluded): `CN(CCCCSc1c2c(nc3ccccc13)CCCC2)CCCNc1c2c(nc3ccccc13)CCCC2`
Resp: False

Req: Threshold test, Ki < 0.05 µM: `CN(CCCNc1c2c(nc3ccccc13)CCCC2)CCCSc1c2c(nc3ccccc13)CCCC2`
Resp: True

Req: API: query returns whether the molecule falls strictly under 0.05 µM in Ki. Query: `c1ccc2c(NCCCCCNc3c4c(nc5ccccc35)CCCC4)c3c(nc2c1)CCCC3`
Resp: False

Req: Identify whether the molecule `c1ccc2c(NCCCCCCCCCSc3c4c(nc5ccccc35)CCCC4)c3c(nc2c1)CCCC3` records Ki below 0.05 µM.
Resp: False

Req: Item `C=CCN(CCCNc1c2c(nc3ccccc13)CCCC2)CCCNc1c2ccccc2nc2ccccc12` : Ki beneath 0.05 µM, strictly?
Resp: True

Req: State whether 0.05 µM exceeds Ki recorded for `CC(=O)N(CCCCSc1c2c(nc3ccccc13)CCCC2)CCCNc1c2c(nc3ccccc13)CCCC2` .
Resp: True

Origin of measurements: ChEMBL document CHEMBL1142727
